assay: P. aeruginosa biofilm formation inhibitors, primary screen, strain PAO1, LB-PBS medium, absorbance 600 nm (AID 1176); also: test concentration not given here; conditions: P. aeruginosa PAO1 growth/biofilm, A600, 12 h; higher = more signal
In this section we review reported z-score values for a set of compounds.
The answer should be a number; do not append a unit.

Record excerpt, results attached:
# compound, quantity, observed
rows = [
    ("CCOC(=O)NN=C1C[C@@H](O)[C@@H](O)[C@@H]2[C@@H]3C(=O)N(C4CCCCC4)C(=O)[C@@H]3CC[C@@H]12", "z-score", 0.283),
    ("C[C@H]1Cc2c(-c3ccccc3)nc3c(c2CO1)CN(CCOc1ccccc1)CC3", "z-score", 1.17),
    ("CC(=O)OC[C@H]1O[C@H](CCON=C(C)CCC(=O)OC[C@H]2O[C@H](C#Cc3ccccc3)C=C[C@@H]2Oc2ccc(C)cc2)C=C[C@@H]1OC(C)=O", "z-score", 0.405),
]

Lookup: z-score for COC(=O)[C@@H]1CC[C@H](C)[C@@H](c2ccc(C)cc2)N1C(=O)c1ccc(C=NOC(C)CN2CCCCc3nc(C)c(C)cc32)cc1 (some centres not stated) ?
Found: 0.642

Lookup: Then this compound: COCCCNC(=O)[C@]1(Cc2ccccc2)N=C(c2ccc(OCCCO)cc2)O[C@@H]1c1ccccc1
Found: 0.494

Lookup: What about this compound? CCOC(=O)CCN1C(=O)[C@H]2[C@H]3[C@H](O)[C@H](O)CC(=NOC[C@@H](O)COCc4ccco4)[C@@H]3CC[C@H]2C1=O
Found: -0.0121

Lookup: Same thing, different compound: COC(=O)[C@H](C)NC(=O)CCC1CC(OC(=O)NCc2cccc3ccccc23)CC2(CCCC(COC(=O)NCCc3ccc(Cl)cc3)O2)O1 (some centres not stated)
Found: -0.61
